tested on: MCC-26; assay: qHTS assay to identify novel small-molecules to repurpose for Merkel cell carcinoma treatment (AID 1296009); conditions: MCC and control cell lines, CellTiter-Glo viability, 72 h; series mostly up to 46 µM; note: nearly all actives have a fitted effect of over 60% in size
Records with an inconclusive call do not appear. Active and inactive are the calls of the source. Calls come from the whole dose curve; as a rule, active = well fitted inhibition curve with a large enough effect; inconclusive = small, poorly fitted or top-dose-only effect; inactive = flat fitted curve, though single readings scatter.
API: response.call in 1 for active, -1 for inactive

Use the examples below as a reference point.
* NC(=O)c1cccnc1 | -1
* CNS(=O)(=O)Cc1ccc2[nH]cc(CCN(C)C)c2c1 | -1
* Clc1ccccc1CN1CCc2sccc2C1 | -1
* CNC(=O)c1cc(Oc2ccc(NC(=O)Nc3ccc(Cl)c(C(F)(F)F)c3)cc2)ccn1 | -1
* O=NN(CCCl)C(=O)NC1CCCCC1 | -1

Challenge: For CNNCc1ccc(C(=O)NC(C)C)cc1 , which call appears in the assay record?
Response given: -1

Challenge: For Nc1ccc(S(=O)(=O)Nc2ccccn2)cc1 , which call appears in the assay record?
Response given: -1

Where these numbers come from: PubChem BioAssay (NCATS)
